Measured pIC50 accompanies every entry in the list below.
system: 293T-HRE-GFP-luc cells; experiment: Cell-based reporter assay for IC50 determinations (HRE-luciferase, hypoxia); settings: 6 h, 6 hrs hypoxia (1% O2), luminescence
pIC50: −log10 of the molar value.

Worked set:
COCCOc1cccc(Cn2cc(-c3noc(-c4ccc(Cl)cc4)n3)ccc2=O)c1; > 7.00
COCCOc1cccc(Cn2cc(-c3noc(-c4ccc(OC(F)F)cc4)n3)ccc2=O)c1; > 7.00
COCCOc1cccc(Cn2cc(-c3noc(-c4ccc(CC#N)cc4)n3)ccc2=O)c1; > 7.00
CS(=O)(=O)C1CCN(c2cccc(Cn3cc(-c4nc(-c5ccc(OC(F)(F)F)cc5)no4)ccc3=O)c2)CC1; > 7.00
COCCOc1cccc(Cn2cc(-c3noc(-c4cnc(N5CCC(C)(C)CC5)nc4)n3)ccc2=O)c1; > 7.00
O=c1ccc(-c2nc(-c3ccc(OC(F)(F)F)cc3)no2)cn1Cc1cccc(N2CCCCC2)c1; > 7.00
C#CCCCC(=O)N1CCN(c2cccc(Cn3cc(-c4nc(-c5ccc(OC(F)(F)F)cc5)no4)ccc3=O)c2)CC1; > 7.00
COCCOc1cccc(Cn2cc(-c3noc(-c4ccc(C#N)cc4)n3)ccc2=O)c1; > 7.00

Fill blank: measured pIC50 of the molecule CC(C)(CO)c1cccc(Cn2cc(-c3nc(-c4ccc(OC(F)(F)F)cc4)no3)ccc2=O)c1 is ____.
6.00 to 7.00

Another: COC(=O)CCc1cccc(Cn2cc(-c3nc(-c4ccc(OC(F)(F)F)cc4)no3)ccc2=O)c1
> 7.00

Another molecule to look at: CC(C)c1ccc(-c2cc(-c3ccc(=O)n(Cc4cccc(N5CCC(S(C)(=O)=O)CC5)c4)c3)no2)cc1
> 7.00

Similarly, CS(=O)(=O)N1CCN(c2cccc(Cn3cc(-c4nc(-c5ccc(OC(F)(F)F)cc5)no4)ccc3=O)c2)CC1 ?
> 7.00

Where these numbers come from: patent US20140073634A1
